studyTarget: MAb 400-1
assayComment: MAb inhibition ELISA; soluble inhibitor of MAb binding to coated hG17(1-9)-“Ala”-BSA
Where no end group is shown, it is not given here. [ ]: non-standard residue; d: D form. pGlu = O=C1CC[C@@H](C(=O)O)N1
measuredProperty: IC50 (nM)

EGPWLEEEEEAYGWMDF (N-terminal pyroglutamic acid (pGlu); C-terminal Phe-NH2 (amide)) [human gastrin-17 (G17), mature amidated form] : 2030
EGPWLEKEEAAYGWMDF (ends and bridges not checked) [equine G17] : 1650
[pGlu]GPWLEEEEEAYGWMDFG [human glycine-extended gastrin-17 (G17-Gly)] : 1790
